Provenance of the data: patent US8143243B2

- tested on: HCV NS5B (Hepatitis C virus genotype 1b)
- Construct: The protein was expressed with an 18 amino acid C-terminal truncation to enhance the solubility; made in house; host or cells: E. coli BL21 (DE3)
- test: HCV NS5B RdRp enzyme assay (standard / modified)
- Assay type: biochemical
pIC50: −log10 of the molar value.
Could you please report measured pIC50 for the items listed next?

>>> df
                                   molecule  measured_value
0  COc1ccc2c(c1)C=C(c1c(C(=O)N3C4CCC3CN(C)C4)cnn1C)Cn1c-2c(C2CCCCC2)c2ccc(C(=O)NS(=O)(=O)N(C)C)cc21    6.30 to 9.00
1  COc1ccc2c(c1)C=C(c1occc1C(=O)N1C3CCC1CN(C)C3)Cn1c-2c(C2CCCCC2)c2ccc(C(=O)NS(=O)(=O)C(C)C)cc21    6.30 to 9.00
2  COc1ccc2c(c1)C=C(c1c(C(=O)N3CC4CCC(C3)N4C)cnn1CC(F)(F)F)Cn1c-2c(C2CCCCC2)c2ccc(C(=O)NS(=O)(=O)C(C)C)cc21    6.30 to 9.00
3  COc1ccc2c(c1)C=C(c1c(C(=O)N3C4CCCC3COC4)cnn1C)Cn1c-2c(C2CCCCC2)c2ccc(C(=O)NS(=O)(=O)CC(C)C)cc21    6.30 to 9.00
4  CCC(C)S(=O)(=O)NC(=O)c1ccc2c(C3CCCCC3)c3n(c2c1)CC(c1c(C(=O)N2C4CCCC2COC4)cnn1C)=Cc1cc(OC)ccc1-3 (stereo not drawn)    6.30 to 9.00

Input line: GET /values?readout=pIC50&item= CCC(C)S(=O)(=O)NC(=O)c1ccc2c(C3CCCCC3)c3n(c2c1)CC(c1c(C(=O)N2C4CCC2CN(C)C4)cnn1C)=Cc1cc(OC)ccc1-3 (stereo not drawn)
Output line: 6.30 to 9.00

###

- tested on: HCV NS5B (Hepatitis C virus genotype 1b, UniProt Q9WMX2)
- Construct: The protein was expressed with an 18 amino acid C-terminal truncation to enhance the solubility; made in house; host or cells: E. coli BL21 (DE3)
- Sequence (Q9WMX2 2420-2992): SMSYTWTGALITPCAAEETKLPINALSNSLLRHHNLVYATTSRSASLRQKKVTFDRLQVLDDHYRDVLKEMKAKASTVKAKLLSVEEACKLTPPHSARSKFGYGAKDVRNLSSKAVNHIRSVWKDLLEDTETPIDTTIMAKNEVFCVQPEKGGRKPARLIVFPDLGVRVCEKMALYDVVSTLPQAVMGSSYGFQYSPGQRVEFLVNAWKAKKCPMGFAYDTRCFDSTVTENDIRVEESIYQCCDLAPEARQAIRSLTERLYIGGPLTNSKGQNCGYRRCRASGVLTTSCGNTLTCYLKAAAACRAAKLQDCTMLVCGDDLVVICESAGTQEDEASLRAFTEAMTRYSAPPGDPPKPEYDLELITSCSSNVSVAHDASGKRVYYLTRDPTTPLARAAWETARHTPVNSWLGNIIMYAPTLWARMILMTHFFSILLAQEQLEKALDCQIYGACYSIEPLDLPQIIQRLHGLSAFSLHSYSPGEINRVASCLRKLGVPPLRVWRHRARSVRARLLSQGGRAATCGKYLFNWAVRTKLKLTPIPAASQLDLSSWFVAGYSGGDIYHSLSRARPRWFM
- test: HCV NS5B RdRp enzyme assay (standard / modified)
- Type: biochemical
- measurement conditions: HCV RdRp genotype 1b enzyme; read-out: IC50
Could you please report measured IC50 for the items listed next?

Example entries begin here.
                                   compound  measured_value
0  COc1ccc2c(c1)C=C(c1c(C(=O)N3CCCC(N(C)C)C3)cnn1C)Cn1c-2c(C2CCCCC2)c2ccc(C(=O)NS(=O)(=O)C3CCC3)cc21 (stereo not drawn)     1 to 500 nM
1  COC[C@@H]1CN(C(=O)c2cnn(C)c2C2=Cc3cc(OC)ccc3-c3c(C4CCCCC4)c4ccc(C(=O)NS(=O)(=O)N5CCOCC5)cc4n3C2)CCO1     1 to 500 nM

Input line: GET /values?readout=IC50&item= "CCN1C[C@@H]2C[C@H]1CN2C(=O)c1c(C(F)(F)F)nn(C)c1C1=Cc2cc(OC)ccc2-c2c(C3CCCCC3)c3ccc(C(=O)NS(=O)(=O)C(C)C)cc3n2C1"
Output line: 1 to 500 nM

###

- tested on: HCV NS5B (Hepatitis C virus genotype 1b)
- Construct: The protein was expressed with an 18 amino acid C-terminal truncation to enhance the solubility; made in house; host or cells: E. coli BL21 (DE3)
- test: HCV NS5B RdRp enzyme assay (standard / modified)
- Type: biochemical
- measurement conditions: HCV RdRp genotype 1b enzyme; read-out: IC50
pIC50: −log10 of the molar value.
endpoint name: pIC50

Example entries begin here.
compound	pIC50
CCC(C)S(=O)(=O)NC(=O)c1ccc2c(C3CCCCC3)c3n(c2c1)CC(c1c(C(=O)N2C[C@@H](C)O[C@@H](C)C2)cnn1C)=Cc1cc(OC)ccc1-3 (stereo partly drawn)	6.30 to 9.00
COc1ccc2c(c1)C=C(c1c(C(=O)N3CCOCC3)cnn1C1CC1)Cn1c-2c(C2CCCCC2)c2ccc(C(=O)NS(=O)(=O)C(C)C)cc21	6.30 to 9.00
CCc1nnc(CN(C(=O)c2cnn(C)c2C2=Cc3cc(OC)ccc3-c3c(C4CCCCC4)c4ccc(C(=O)NS(=O)(=O)C(C)C)cc4n3C2)C(C)C)o1	6.30 to 9.00
COc1ccc2c(c1)C=C(c1c(C(=O)N3C[C@@H](C)N(C)[C@@H](C)C3)cnn1C)Cn1c-2c(C2CCCCC2)c2ccc(C(=O)NS(=O)(=O)C3CCCC3)cc21	6.30 to 9.00
COc1ccc2c(c1)C=C(c1c(C(=O)N3C[C@@H](C)O[C@@H](C)C3)c(C(F)(F)F)nn1C)Cn1c-2c(C2CCCCC2)c2ccc(C(=O)NS(=O)(=O)C(C)C)cc21	> 7.70

# ---- query compound ----
Input line: GET /values?readout=pIC50&item= "CCn1ncc(C(=O)N2CCOCC2)c1C1=Cc2cc(OC)ccc2-c2c(C3CCCCC3)c3ccc(C(=O)NS(=O)(=O)N4CCCC4)cc3n2C1"
Output line: 6.30 to 9.00
